Test system: HL-60(TB) leukemia
experiment: NCI tumour cell line growth inhibition, 48 h
reported property: TGI

{"columns": ["molecule", "target desc", "TGI"],
 "data": [
  ["O=C1CC(c2ccc3c(c2)OCO3)Nc2ccccc21 (centres undefined)", "HL-60(TB) leukemia", "> 100 µM"],
  ["COc1cc(CNc2cnc3cc(N)cc(N)c3n2)cc(OC)c1", "HL-60(TB) leukemia", "> 100 µM"],
  ["O=C1OCC(O)=C1C(c1ccc(Cl)cc1)c1cc2c(cc1O)OCO2 (centres undefined)", "HL-60(TB) leukemia", "> 100 µM"]
]}

Now take the following molecule into account.
# TGI lookup, item CC(=O)O[C@H]1C(=O)[C@]2(C)[C@@H](OC(=O)OCCC(O)CO)C[C@H]3OC[C@@]3(OC(C)=O)[C@H]2[C@H](OC(=O)c2ccccc2)[C@]2(O)C[C@H](OC(=O)[C@H](O)[C@@H](NC(=O)c3ccccc3)c3ccccc3)C(C)=C1C2(C)C (some centres undefined)
< 0.0106 µM
